System: Fibroblast
method: Multiplex assay against human fibroblast
Format: toxicity, cell-based
settings: 12 h, 10 µM, compound concentration 10 uM, replicate 1
hey, just use rule met if measured Population Apoptotic (%) is less than 50%, otherwise rule not met

Query: A record lists S=C(NCCCc1c[nH]cn1)NCCCN(Cc1ccc(Cl)c(Cl)c1)c1ccc(Br)cn1 . Is its Population Apoptotic (%) below 50%?
Reply: rule met

Query: A record lists CCC(=O)OCC(=O)[C@@]1(OC(=O)CC)[C@@H](C)C[C@H]2[C@@H]3CCC4=CC(=O)C=C[C@]4(C)[C@@]3(Cl)[C@@H](O)C[C@@]21C [BECLOMETHASONE DIPROPIONATE] . Is its Population Apoptotic (%) below 50%?
Reply: rule met

Query: A record lists CC(F)(F)CN1CCOc2c(nn(-c3ccccc3Cl)c2-c2ccc(Cl)cc2)C1=O . Is its Population Apoptotic (%) below 50%?
Reply: rule met

Query: A record lists Cc1sc2c(c1C)C(c1ccc(Cl)cc1)=N[C@H](CC(=O)OC(C)(C)C)c1nnc(C)n1-2 . Is its Population Apoptotic (%) below 50%?
Reply: rule met

Query: A record lists Cc1cc(NC(=O)NCCN2CCC(O)(Cc3ccccc3)CC2)c2ccccc2n1 . Is its Population Apoptotic (%) below 50%?
Reply: rule met

Query: A record lists COc1cc2nc(N3CCN(C(=O)COc4c(OC)cccc4C(C)C)CC3)nc(N)c2cc1OC.Cl.Cl . Is its Population Apoptotic (%) below 50%?
Reply: rule met

Query: A record lists COCCn1c(C)c(C)s/c1=N\C(=O)C1C(C)(C)C1(C)C . Is its Population Apoptotic (%) below 50%?
Reply: rule not met

Query: A record lists CN(C)C(=O)Cn1cc(-c2ccc(-c3nnc4ccccn34)cc2)cn1 . Is its Population Apoptotic (%) below 50%?
Reply: rule not met

Query: A record lists CN1C[C@H](C(=O)N[C@]2(C)O[C@@]3(O)[C@@H]4CCCN4C(=O)[C@H](Cc4ccccc4)N3C2=O)C[C@@H]2c3cccc4[nH]cc(c34)C[C@H]21.CS(=O)(=O)O [DIHYDROERGOTAMINE MESYLATE] . Is its Population Apoptotic (%) below 50%?
Reply: rule not met

Query: A record lists O=C(NCCNCC(O)COc1ccc(O)cc1)N1CCOCC1.O=C(NCCNCC(O)COc1ccc(O)cc1)N1CCOCC1.O=C(O)/C=C/C(=O)O (stereo not drawn) [XAMOTEROL FUMARATE] . Is its Population Apoptotic (%) below 50%?
Reply: rule met

Query: A record lists Cc1cc(O)c(-c2ccc([C@@H](C)CN(C)C)cc2)c2c1[nH]c(=O)c1sccc12 . Is its Population Apoptotic (%) below 50%?
Reply: rule not met

Query: A record lists C[C@H](NC(=O)CNC(=O)c1cccc(Cl)c1)c1ccccc1 . Is its Population Apoptotic (%) below 50%?
Reply: rule met

Query: A record lists O=c1ccc2ccc(OCCCCN3CCN(c4cccc5sccc45)CC3)cc2[nH]1 . Is its Population Apoptotic (%) below 50%?
Reply: rule not met

Query: A record lists Nc1nc(CC(=O)Nc2ccc(CCNC[C@H](O)c3ccccc3)cc2)cs1 . Is its Population Apoptotic (%) below 50%?
Reply: rule met

Query: A record lists CCCCCCNC(=O)Nc1ccc(S(=O)(=O)Nc2ccc(CCNC[C@H](O)COc3ccc(O)cc3)cc2)cc1 . Is its Population Apoptotic (%) below 50%?
Reply: rule met

Query: A record lists COc1c(Nc2ccc(S(C)(=O)=O)nc2C)ncnc1OC1CCN(C(=O)OC(C)C)CC1 . Is its Population Apoptotic (%) below 50%?
Reply: rule met

Query: A record lists Cc1ccc(OCC(O)C(C)NC(C)C)c2c1CCC2.Cl (stereo not drawn) . Is its Population Apoptotic (%) below 50%?
Reply: rule met

Query: A record lists COc1ccc2c(c1OCc1ccccc1)C[C@@H](C(=O)O)N(C(=O)C(c1ccccc1)c1ccccc1)C2 . Is its Population Apoptotic (%) below 50%?
Reply: rule met

Query: A record lists Nc1nc(-c2ccco2)c2cnn(Cc3ccccc3F)c2n1 . Is its Population Apoptotic (%) below 50%?
Reply: rule not met

Query: A record lists OCCCNc1cc(-c2ccnc(Nc3cccc(Cl)c3)n2)ccn1 . Is its Population Apoptotic (%) below 50%?
Reply: rule not met

Query: A record lists CN1CCN(c2ccc(Nc3c4ccccc4nc4ccccc34)cc2)CC1.Cl.Cl.O . Is its Population Apoptotic (%) below 50%?
Reply: rule not met

Query: A record lists COc1cc2nc(N3CCN(C(=O)c4ccco4)CC3)nc(N)c2cc1OC.Cl [PRAZOSIN HYDROCHLORIDE] . Is its Population Apoptotic (%) below 50%?
Reply: rule met

Query: A record lists Cc1cc(-c2ccc3c(c2)CC[C@H]3N2CC3(CCN(C(=O)Cc4cn5cc(C)sc5n4)CC3)C2)ncn1 . Is its Population Apoptotic (%) below 50%?
Reply: rule met

Query: A record lists COc1ccc2[nH]c(I)c(CCNC(C)=O)c2c1 . Is its Population Apoptotic (%) below 50%?
Reply: rule met

Query: A record lists CCCCC[C@H](O)/C=C/[C@H]1[C@H](O)CC(=O)[C@@H]1CCCCCCC(=O)O . Is its Population Apoptotic (%) below 50%?
Reply: rule met

Query: A record lists COc1cc(OC2CCN(C(C)=O)CC2)ccc1C(=O)N1CCC(N2C(=O)OCc3ccccc32)CC1 . Is its Population Apoptotic (%) below 50%?
Reply: rule not met

Recorded values, source ChEMBL document CHEMBL5058577.
